- Test system: corn
- method: Test B pre/postemergence corn
- Assay type: in vivo, Zea mays
- conditions: Rate 500 g/ha, Postemergence; scale 0 to 10, 0 is no effect, 10 is complete control
Form field: Corn plant response rating (one value per entry).

compound	targetUnderTest	Corn plant response rating
CC[C@H](C)n1c(=O)on(C(=O)N(c2ccc(F)cc2F)C(C)C)c1=O [Compound 666]	corn	0
C#CCn1c(=O)on(C(=O)N(c2ccccc2)C(C)C)c1=O [Compound 754]	corn	5
Cc1nc(C(C)n2c(=O)on(C(=O)N(c3ccc(F)cc3)C(C)C)c2=O)sc1C (stereo not shown) [Compound 757]	corn	0
CC(=O)OCC(CCl)n1c(=O)on(C(=O)N(c2ccc(F)cc2F)C(C)C)c1=O (racemic) [Compound 708]	corn	0
C#CC(C)n1c(=O)on(C(=O)N(c2ccc(Cl)cc2)C(C)C)c1=O (racemic) [Compound 658]	corn	0
CC[C@H](C)n1c(=O)on(C(=O)N(c2ccc(Cl)cc2)C(C)C)c1=O [Compound 664]	corn	0
C#CC(C)n1c(=O)on(C(=O)N(c2ccc(F)cc2F)C(C)C)c1=O (racemic) [Compound 657]	corn	1
COC(=O)C(CCO)n1c(=O)on(C(=O)N(c2ccc(F)cc2)C(C)C)c1=O (stereo not shown) [Compound 680]	corn	0
CC(C)N(C(=O)n1oc(=O)n(C(C)C)c1=O)c1ccncc1 [Compound 663]	corn	0
CC(C)N(C(=O)n1oc(=O)n(CCCCl)c1=O)c1ccc(Cl)cc1 [Compound 749]	corn	1

----------
- Test system: blackgrass
- method: Test B pre/postemergence blackgrass
- Format: in vivo, Alopecurus myosuroides
- conditions: Postemergence, Rate 62 g/ha; scale of 0 to 10, 0 is no effect, 10 is complete control
Please use True for Blackgrass plant response rating under 4 and False for everything else, ties included.

compound	assignedClass
CC(C)N(C(=O)n1oc(=O)n(CCC2OCCCO2)c1=O)c1ccccc1 [Compound 561]	True
CC(C)N(C(=O)n1oc(=O)n(CCCCF)c1=O)c1ccc(F)cc1F [Compound 522]	False
CC(C)N(C(=O)n1oc(=O)n(CCCC(F)(F)F)c1=O)c1ccccc1 [Compound 585]	True
C=CCCCn1c(=O)on(C(=O)N(c2ccc(Cl)cc2)C(C)C)c1=O [Compound 546]	True

----------
- System: morningglory
- method: Test B pre/postemergence morningglory
- Format: in vivo, Ipomoea hederacea
- conditions: Preemergence, Rate 500 g/ha; scale of 0 to 10 where 0 is no effect and 10 is complete control
assayMetric: Plant response rating, Morningglory

molecule	reportedMeasurement
CC(C)N(C(=O)n1oc(=O)n(CCC2OCCCO2)c1=O)c1ccc(F)cc1 [Compound 255]	0
COCCn1c(=O)on(C(=O)N(c2ccc(F)cc2F)C(C)C)c1=O [Compound 628]	7
C=C(Cl)Cn1c(=O)on(C(=O)N(c2ccc(F)cc2F)C(C)C)c1=O [Compound 634]	0
C=C(C)CCn1c(=O)on(C(=O)N(c2ccc(F)cc2)C(C)C)c1=O [Compound 199]	0
CC(C)N(C(=O)n1oc(=O)n(CNC(=O)c2ccccc2)c1=O)c1ccccc1 [Compound 620]	0
CCC(C)n1c(=O)on(C(=O)N(c2ccccc2)C(C)C)c1=O (centres unmarked) [Compound 610]	8
COc1cc(C)cc(C)c1-n1c(=O)on(C(=O)N(c2ccc(F)cc2F)C(C)C)c1=O [Compound 223]	1
C#CC=CC(C)(C)n1c(=O)on(C(=O)N(c2ccccc2)C(C)C)c1=O [Compound 655]	0

----------
- Test system: crabgrass
- method: Test B pre/postemergence crabgrass
- Assay type: in vivo, Digitaria sanguinalis
- conditions: Postemergence, Rate 125 g/ha; scale of 0 to 10 where 0 is no effect and 10 is complete control
# Lookup of reported Plant response rating, Crabgrass keyed by entry

molecule	Plant response rating, Crabgrass
C=C(Cn1c(=O)on(C(=O)N(c2ccccc2)C(C)C)c1=O)c1cccc(Cl)n1 [Compound 605]	0
CC(C)N(C(=O)n1oc(=O)n(CNC(=O)c2ccccc2)c1=O)c1ccccc1 [Compound 620]	2
CCOP(=O)(Cn1c(=O)on(C(=O)N(c2ccc(Cl)cc2)C(C)C)c1=O)OCC [Compound 599]	0
C=C(Cl)Cn1c(=O)on(C(=O)N(c2ccc(F)cc2F)C(C)C)c1=O [Compound 634]	3

----------
- Tested on: crabgrass
- method: Test B pre/postemergence crabgrass
- Format: in vivo, Digitaria sanguinalis
- conditions: Rate 62 g/ha, Postemergence; scale of 0 to 10 where 0 is no effect and 10 is complete control
Crabgrass plant response rating overview
assayMetric: Crabgrass plant response rating

compound	reportedMeasurement
CC(C)N(C(=O)n1oc(=O)n(C(C)C)c1=O)c1ccc(F)cc1 [Compound 131]	5
C#CCn1c(=O)on(C(=O)N(c2ccc(F)cc2)C(C)C)c1=O [Compound 212]	6
COc1cc(C)cc(C)c1-n1c(=O)on(C(=O)N(c2ccc(F)cc2F)C(C)C)c1=O [Compound 223]	0
COc1nc(OC)nc(N(C(=O)n2oc(=O)n(-c3ccccc3C)c2=O)C(C)C)n1 [Compound 181]	0
Cc1ccccc1-n1c(=O)on(C(=O)N(c2ccc(Cl)cc2Cl)C(C)C)c1=O [Compound 185]	0
Cc1c(-n2c(=O)on(C(=O)N(c3ccccc3)C(C)C)c2=O)ccc2ccccc12 [Compound 344]	0
CC(C)N(C(=O)n1oc(=O)n(Cc2ccccc2Cl)c1=O)c1ccc(F)cc1 [Compound 140]	0
CC(C)N(C(=O)n1oc(=O)n(C2CCCCC2)c1=O)c1ccc(F)cc1F [Compound 115]	0
Cc1nc(C)c(Cn2c(=O)on(C(=O)N(c3ccc(F)cc3)C(C)C)c2=O)s1 [Compound 232]	0
CC(C)N(C(=O)n1oc(=O)n(N(C)C)c1=O)c1ccccc1 [Compound 225]	5
CC(C)N(C(=O)n1oc(=O)n(C(C)C)c1=O)c1ccc(Cl)cc1 [Compound 114]	2
Cc1nsc(Cl)c1Cn1c(=O)on(C(=O)N(c2ccccc2)C(C)C)c1=O [Compound 374]	0

----------
- System: duck salad
- method: Test B flood test duck salad
- Type: in vivo, Heteranthera limosa
- conditions: Rate 500 g/ha; Pre-emergence; flood test species; scale 0 to 10 (0 no effect, 10 complete control)
compounds and their reported Ducksalad plant response rating

structure	targetUnderTest	Ducksalad plant response rating
CCN(C(=O)n1oc(=O)n(C2CCCCC2)c1=O)C1CCCCC1	duck salad	0
CC(C)N(C(=O)n1oc(=O)n(-c2ccc3ccccc3c2)c1=O)c1ccc(Cl)cc1	duck salad	0
CC(C)N(C(=O)n1oc(=O)n(CCC2OCCCO2)c1=O)c1ccc(F)cc1	duck salad	0

----------
- System: Green foxtail
- method: Test D green foxtail
- Type: in vivo
- conditions: Rate 125 g/ha, Preemergence; 0 to 100 scale, 0 no injury, 100 complete control
Measured Green foxtail plant response rating of individual entries

structure	Green foxtail plant response rating
CCn1c(=O)on(C(=O)N(c2ccccc2)C(C)C)c1=O	100
CC(C)N(C(=O)n1oc(=O)n(C2CCCCC2)c1=O)c1ccc(F)cc1F	100
CC(C)N(C(=O)n1oc(=O)n(C(C)C)c1=O)c1ccc(Cl)cc1	100
Cc1cccc(C)c1-n1c(=O)on(C(=O)N(c2ccc(F)cc2)C(C)C)c1=O	85

----------
- Tested on: wheat
- method: Test B pre/postemergence wheat
- Type: in vivo, Triticum aestivum
- conditions: Preemergence, Rate 500 g/ha; scale of 0 to 10 where 0 is no effect and 10 is complete control
assayMetric: Plant response rating, Wheat

molecule	assayMetric	reportedMeasurement
CC(C)N(C(=O)n1oc(=O)n(CSC#N)c1=O)c1ccc(F)cc1	Plant response rating, Wheat	0
C=C(Cl)Cn1c(=O)on(C(=O)N(c2ccc(F)cc2F)C(C)C)c1=O	Plant response rating, Wheat	0
CCC(C)n1c(=O)on(C(=O)N(c2ccccc2)C(C)C)c1=O (stereo not drawn) [Compound 610]	Plant response rating, Wheat	6
CCC(C)n1c(=O)on(C(=O)N(c2ccccc2)C(C)C)c1=O (stereo not drawn) [Compound 611]	Plant response rating, Wheat	7
CC(C)N(C(=O)n1oc(=O)n(CC2CCCCO2)c1=O)c1ccc(Cl)cc1 (stereo not drawn)	Plant response rating, Wheat	0
Cc1nc(C)c(Cn2c(=O)on(C(=O)N(c3ccc(F)cc3)C(C)C)c2=O)s1	Plant response rating, Wheat	0
CC(C)N(C(=O)n1oc(=O)n(C(CF)CF)c1=O)c1ccc(F)cc1F	Plant response rating, Wheat	6
C#CC(C)n1c(=O)on(C(=O)N(c2ccc(Cl)cc2)C(C)C)c1=O (racemic)	Plant response rating, Wheat	3
CCOC(=O)C(C)N(C(=O)n1oc(=O)n(C2CCCCC2)c1=O)c1ccc(F)cc1 (stereo not drawn)	Plant response rating, Wheat	0

----------
- Test system: bedstraw
- method: Test B pre/postemergence bedstraw
- Format: in vivo, Galium aparine
- conditions: Postemergence, Rate 62 g/ha; scale 0 to 10, 0 is no effect, 10 is complete control
As shown below, each of these compounds has a reported Bedstraw plant response rating value.

structure	targetUnderTest	Bedstraw plant response rating
Cc1cccc(Cl)c1-n1c(=O)on(C(=O)N(c2ccc(F)cc2)C(C)C)c1=O	bedstraw	2
Cc1nn(C)c(Cl)c1-n1c(=O)on(C(=O)N(c2ccc(F)cc2F)C(C)C)c1=O	bedstraw	0
Cc1c(Cl)cccc1-n1c(=O)on(C(=O)N(c2ccc(F)cc2)C(C)C)c1=O	bedstraw	0
Cc1ccccc1-n1c(=O)on(C(=O)N(c2ccc([N+](=O)[O-])cc2)C(C)C)c1=O	bedstraw	0
